Numbers sourced from ChEMBL document CHEMBL1126986.

Tested on: 3-oxo-5-alpha-steroid 4-dehydrogenase 1 (Homo sapiens)
Protocol summary: Compound was tested for inhibition of Type I 5-alpha-reductase in Human genital skin (Hs68) foreskin fibroblast cells.
Format: cell-based
Parameter: IC50
Entry format: amount then unit.

Input: Lab note: need IC50 with 3-oxo-5-alpha-steroid 4-dehydrogenase 1 (Homo sapiens) for entry CC(C)(C)NC(=O)[C@H]1CC[C@H]2[C@@H]3CC[C@H]4NC(=O)C=C[C@]4(C)[C@H]3CC[C@]12C [FINASTERIDE] , please look it up.
Output: 62 nM

* * *

Tested on: 3-oxo-5-alpha-steroid 4-dehydrogenase 1 (Homo sapiens, UniProt P18405)
Protocol summary: In vitro inhibition of DHT production in Hs 68 (human genital fibroblast) cells.
Parameter: IC50 (nM)
// units = nM; emit number, no label

Input: Tell me the measured IC50 of CC12CCC(=O)NC1=CCc1cc(Cl)ccc12 (stereo unspecified) , please.
Output: 3600

Input: Tell me the measured IC50 of `O=C1CCC2=C(CCc3ccccc32)N1` , please.
Output: 6500

Input: Tell me the measured IC50 of CC(C)(C)NC(=O)[C@H]1CC[C@H]2[C@@H]3CC=C4C=C(C(=O)O)CC[C@]4(C)[C@H]3CC[C@]12C [EPRISTERIDE] , please.
Output: 7500

Input: Tell me the measured IC50 of `COc1ccc2c(c1)CC[C@@H]1[C@@H]2CCC(=O)N1C` , please.
Output: 120

Input: Tell me the measured IC50 of `O=C1CCC2=C(CCc3cccc(F)c32)N1` , please.
Output: 10000

Input: Tell me the measured IC50 of `CN1C(=O)CC[C@@H]2c3ccc(Cl)cc3CC[C@@H]21` , please.
Output: 41

Input: Tell me the measured IC50 of `O=C1CCC2=C(CCc3cc(Cl)ccc32)N1` , please.
Output: 460

Input: Tell me the measured IC50 of CN1C(=O)CC[C@@H]2c3ccc(Cl)cc3CC[C@H]21 [BEXLOSTERIDE] , please.
Output: 8

Input: Tell me the measured IC50 of `CN1C(=O)CC[C@@H]2c3ccc(F)cc3CC[C@@H]21` , please.
Output: 320

Input: Tell me the measured IC50 of CN1C(=O)CCC2(C)C1=CCc1cc(Cl)ccc12 (stereo unspecified) , please.
Output: 120

Input: Tell me the measured IC50 of `CN1C(=O)CC[C@]2(C)c3ccc(Cl)cc3CC[C@@H]12` , please.
Output: 17

* * *

Record form. Attribute: IC50. Fill in for each entry.
Tested on: UniProt:P18405
Sequence (P18405 whole entry): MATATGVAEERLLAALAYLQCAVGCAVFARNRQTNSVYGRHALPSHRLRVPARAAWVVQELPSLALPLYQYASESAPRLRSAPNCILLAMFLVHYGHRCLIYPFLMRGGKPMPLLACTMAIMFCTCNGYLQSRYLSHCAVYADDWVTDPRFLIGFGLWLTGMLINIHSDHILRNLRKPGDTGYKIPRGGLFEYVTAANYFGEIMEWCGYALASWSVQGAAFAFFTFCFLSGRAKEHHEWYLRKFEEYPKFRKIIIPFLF
Protocol summary: In vitro inhibition of DHT production in Hs 68 (human genital fibroblast) cells.
// units = nM; emit number, no label

Input: Tell me the measured IC50 of `Cc1ccc2c(c1)CC[C@@H]1[C@@H]2CCC(=O)N1C` , please.
Output: 11

Input: Tell me the measured IC50 of `C[C@]12CCC(=O)N[C@@H]1CCc1cc(Cl)ccc12` , please.
Output: 1800

Input: Tell me the measured IC50 of `O=C1CCC2=C(CCc3ccc(F)cc32)N1` , please.
Output: 2300

Input: Tell me the measured IC50 of `O=C1CC[C@@H]2c3ccc(Cl)cc3CC[C@H]2N1` , please.
Output: 60

Input: Tell me the measured IC50 of `O=C1CCC2=C(CCc3c(F)cccc32)N1` , please.
Output: 3200

Input: Tell me the measured IC50 of `CN1C(=O)CCC2=C1CCc1cc(Cl)ccc12` , please.
Output: 30

Input: Tell me the measured IC50 of `O=C1CCC2=C(CCc3cc(F)ccc32)N1` , please.
Output: 600

Input: Tell me the measured IC50 of `CN1C(=O)CC[C@@H]2c3ccc(F)cc3CC[C@H]21` , please.
Output: 35

Input: Tell me the measured IC50 of `CN1C(=O)CC[C@@H]2c3ccccc3CC[C@H]21` , please.
Output: 560
